// reported IC50 for each item listed
assayed target: Gamma-secretase
protocol: Inhibition of gamma-secretase (unknown origin) using Notch1 substrate assessed as Notch1-NICD production
Type: protein-complex assay, Homo sapiens
Unit nM implied. Number only.

Data request: Consider the compound C#CCOc1ccc(C(=O)c2ccc(C(=O)N[C@@H](Cc3ccccc3)[C@H](O)C[C@@H](Cc3ccccc3)C(=O)N[C@@H](C)C(=O)N[C@@H]3N=C(C4CCCCC4)c4ccccc4NC3=O)cc2)cc1 and give its measured IC50.
Data returned: 1

Shift focus to the following entry.
Data request: Consider the compound C[C@H](NC(=O)[C@H](Cc1ccccc1)C[C@@H](O)[C@H](Cc1ccccc1)NC(=O)OC(C)(C)C)C(=O)N[C@@H]1N=C(C2CCCCC2)c2ccccc2NC1=O and give its measured IC50.
Data returned: 0.56
